system: Cullin-3 (CUL3) neddylation; assay: AlphaLISA assay for Cullin-3 (CUL3) neddylation in TF 1 cells; type: cell-based; details: Homo sapiens, TF-1, 3 h, 3 hours treatment
pIC50: −log10 of the molar value.
quantity.kind: pIC50

Completed entries (count: 5):
INSERT INTO results (compound, value_reported) VALUES
  ('CCN1C(=O)[C@@H](NC(=O)c2cccc(C(F)(F)F)c2)[C@@H](c2ccc(F)cc2)c2c(CN(C)C/C=C/C(=O)N3CCCC3)nn(-c3ccccc3)c21', '< 6.00'),
  ('CCN1C(=O)[C@@H](NC(=O)[C@@H]2CCN(Cc3ccccc3)C2)[C@@H](C2CC2)c2c(C(=O)N3[C@H](C#N)C[C@H]4C[C@H]43)nn(C3CCOCC3)c21', '< 6.00'),
  ('CCN1C(=O)[C@@H](NC(=O)c2cccc(C(F)(F)F)c2)[C@H](c2ccc(F)cc2)c2c(CN(C)C(=O)CC#N)nn(-c3ccccc3)c21', '6.00 to 7.00'),
  ('CCN1C(=O)[C@@H](NC(=O)c2cccc(C(F)(F)F)c2)[C@@H](c2ccc(F)cc2)c2c(C(=O)N(CC#N)CCN3CC4CCC(C3)O4)nn(-c3ccccc3)c21 (mixture of isomers)', '≥ 7.00'),
  ('C=C(C(=O)NCc1nn(-c2ccccc2)c2c1[C@H](c1ccc(F)cc1)[C@H](NC(=O)c1cccc(C(F)(F)F)c1)C(=O)N2CC)C(C)N1CCOCC1 (mixture of isomers)', '≥ 7.00');

Any idea what its pIC50 is? The compound is CCN1C(=O)[C@@H](NC(=O)c2cccc(C(F)(F)F)c2)[C@@H](C2CC2)c2c(C(=O)N3CC[C@H](NC)[C@H]3C#N)nn(C3CCOCC3)c21 (relative stereo)
≥ 7.00

Any idea what its pIC50 is? The compound is `CCN1C(=O)[C@@H](NC(=O)c2cccc(C(F)(F)F)c2)[C@@H](c2ccc(F)cc2)c2c(CNC/C=C/C(=O)N(C)C)nn(-c3ccccc3)c21`
6.00 to 7.00

----------
target: DCN1 (DCUND1) protein PONY domain (Homo sapiens (Human)); assay: TR-FRET assay, DCN1 binding with FAM-labeled probe; conditions: 24 hr after treatment with compound; read-out: TR FRET IC50 24 hr
Sequence (Q96GG9 60-248): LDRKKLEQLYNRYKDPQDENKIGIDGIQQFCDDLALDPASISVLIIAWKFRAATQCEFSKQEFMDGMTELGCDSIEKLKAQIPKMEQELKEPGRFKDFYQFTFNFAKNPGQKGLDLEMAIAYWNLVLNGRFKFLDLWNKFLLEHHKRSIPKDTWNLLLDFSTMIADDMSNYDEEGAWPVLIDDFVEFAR
quantity.kind: IC50

INSERT INTO measurements (compound, quantity_kind, value_reported) VALUES
  ('CCN1C(=O)[C@@H](NC(=O)c2cccc(C(F)(F)F)n2)[C@@H](c2ccc(F)cc2)c2c(C(=O)N3CCC[C@H]3C#N)nn(C3CCOCC3)c21', 'IC50', '≤ 200 nM'),
  ('CCN1C(=O)[C@@H](NC(=O)c2cccc(C(F)(F)F)c2)[C@@H](C2CC2)c2c(C(=O)N3C[C@H](NC)C[C@H]3C#N)nn(C3CCOCC3)c21', 'IC50', '≤ 200 nM'),
  ('C=C(CN1CC(C)(O)C1)C(=O)NCc1nn(-c2ccccc2)c2c1[C@H](c1ccc(F)cc1)[C@H](NC(=O)c1cccc(C(F)(F)F)c1)C(=O)N2CC', 'IC50', '≤ 200 nM'),
  ('CCCn1nc(C(=O)N(CC#N)C2CC2)c2c1N(CC)C(=O)[C@@H](NC(=O)c1cccc(C(F)(F)F)c1)[C@H]2c1ccc(F)cc1', 'IC50', '≤ 200 nM'),
  ('C=C(CN1CCN(C2COC2)CC1)C(=O)NCc1nn(-c2ccccc2)c2c1[C@H](c1ccc(F)cc1)[C@H](NC(=O)c1cccc(C(F)(F)F)c1)C(=O)N2CC (racemic)', 'IC50', '≤ 200 nM'),
  ('CCN1C(=O)[C@@H](NC(=O)c2cccc(C(F)(F)F)c2)[C@@H](C2CC2)c2c(C(=O)N(CC#N)C3CC3)nn(C3CCOCC3)c21', 'IC50', '≤ 200 nM'),
  ('CCN1C(=O)[C@@H](NC(=O)c2cccc(C(F)(F)F)c2)[C@@H](c2ccc(F)cc2)c2c(CNC(=O)C34CC3C4)nn(-c3ccccc3)c21 (some centres unmarked)', 'IC50', '200 to 1000 nM'),
  ('CCN1C(=O)[C@@H](NC(=O)C2CCN(C)CC2)[C@@H](C2CC2)c2c(C(=O)N3[C@H](C#N)C[C@H]4C[C@H]43)nn(C3CCOCC3)c21', 'IC50', '1000 to 3000 nM'),
  ('CCN1C(=O)[C@@H](NC(=O)c2cccc(C(F)(F)F)c2)[C@@H](c2ccc(F)cc2)c2c(C(=O)N3CCC[C@H]3C#N)nn(-c3cccc(OCCCN4CCOCC4)c3)c21', 'IC50', '≤ 200 nM'),
  ('CCN1C(=O)[C@@H](NC(=O)c2cccc3c2OCC3)[C@@H](C2CC2)c2c(C(=O)N3[C@H](C#N)C[C@H]4C[C@H]43)nn(C3CCOCC3)c21', 'IC50', '≤ 200 nM');

Any idea what its IC50 is? The compound is `CCN1C(=O)[C@@H](NC(=O)c2cccc(C(F)(F)F)c2)[C@@H](c2ccc(F)cc2)c2c(CN(C)CC#N)nn(-c3ccccc3)c21`
200 to 1000 nM

Any idea what its IC50 is? The compound is `CCN1C(=O)[C@@H](NC(=O)c2cccc(C(F)(F)F)c2)[C@@H](c2ccc(F)cc2)c2c(C(=O)N(CC#N)CC#N)nn(C3CCOCC3)c21`
≤ 200 nM

Any idea what its IC50 is? The compound is `CCN1C(=O)[C@@H](NC(=O)CCc2ccccc2)[C@@H](C2CC2)c2c(C(=O)N3[C@H](C#N)C[C@H]4C[C@H]43)nn(C3CCOCC3)c21`
1000 to 3000 nM

Any idea what its IC50 is? The compound is `CCCn1nc(C(=O)N2CCC[C@H]2C#N)c2c1N(CC)C(=O)[C@H](NC(=O)c1cccc(C(F)(F)F)c1)[C@@H]2c1ccc(F)cc1`
1000 to 3000 nM
